# Test system: mouse MC3T3 H1 osteoblast cultures
# Procedure Summary: Cell adhesion test: adhesion of osteoblast cultures in vitro to RGD peptide-coated material surfaces
# Format: cell-based
# Condition Set: 50,000 cells/cm^2 inoculated, serum-free medium, 37°/95% atmospheric humidity, one hour, adhered cells/inoculated cells x 100
# Experimental: Example of Cell Adhesion Test The adhesion of mouse MC3T3 H1 osteoblast cultures in vitro to RGD peptide-coated material surfaces was investigated. In the course of this, 50,000 cells/cm^2 were inoculated and, after incubation in serum-free medium at 37°/95% atmospheric humidity for one hour, the proportion of adherent cells was determined. Cell adhesion rate [%]=adhered cells/inoculated cells x 100
What cell adhesion rate [%] was measured for each of the following?
Please format your answer as a value with the unit trailing.

Study these solved cases before continuing.
cyclo-(Arg-Gly-Asp-D-Phe-Lys(N^ε—CO—(CH2)5—NH—CO—(CH2)5—NH—CO—CH═CH2)): 92.4%
cyclo-(Arg-Gly-Asp-D-Phe-Lys(N^ε—CO—(CH2)5—NH—CO—CH═CH2)): 11.3%
cyclo-(Arg-Gly-Asp-D-Phe-Lys(N^ε—CO—CH2—O—CH2CH2—O—CH2CH2—NH—CO—(CH2)5—NH—CO—CH═CH2)): 109.0%
cyclo-(Arg-Gly-Asp-D-Phe-Lys(N^ε—(CO—CH2—O—CH2CH2—O—CH2CH2—NH)2—CO—(CH2)5—NH—CO—CH═CH2)): 110.5%

Let's switch to this substance now.
In: Would you mind telling me what cell adhesion rate [%] value was observed for cyclo-(Arg-Gly-Asp-D-Phe-Lys(N^ε—CO—CH2CH2CO—NH—CH2CH2—SH)) ?
Out: 86.2%
